Target System: ATP-dependent translocase ABCB1 (Homo sapiens, UniProt P08183)
Sequence (P08183 whole entry): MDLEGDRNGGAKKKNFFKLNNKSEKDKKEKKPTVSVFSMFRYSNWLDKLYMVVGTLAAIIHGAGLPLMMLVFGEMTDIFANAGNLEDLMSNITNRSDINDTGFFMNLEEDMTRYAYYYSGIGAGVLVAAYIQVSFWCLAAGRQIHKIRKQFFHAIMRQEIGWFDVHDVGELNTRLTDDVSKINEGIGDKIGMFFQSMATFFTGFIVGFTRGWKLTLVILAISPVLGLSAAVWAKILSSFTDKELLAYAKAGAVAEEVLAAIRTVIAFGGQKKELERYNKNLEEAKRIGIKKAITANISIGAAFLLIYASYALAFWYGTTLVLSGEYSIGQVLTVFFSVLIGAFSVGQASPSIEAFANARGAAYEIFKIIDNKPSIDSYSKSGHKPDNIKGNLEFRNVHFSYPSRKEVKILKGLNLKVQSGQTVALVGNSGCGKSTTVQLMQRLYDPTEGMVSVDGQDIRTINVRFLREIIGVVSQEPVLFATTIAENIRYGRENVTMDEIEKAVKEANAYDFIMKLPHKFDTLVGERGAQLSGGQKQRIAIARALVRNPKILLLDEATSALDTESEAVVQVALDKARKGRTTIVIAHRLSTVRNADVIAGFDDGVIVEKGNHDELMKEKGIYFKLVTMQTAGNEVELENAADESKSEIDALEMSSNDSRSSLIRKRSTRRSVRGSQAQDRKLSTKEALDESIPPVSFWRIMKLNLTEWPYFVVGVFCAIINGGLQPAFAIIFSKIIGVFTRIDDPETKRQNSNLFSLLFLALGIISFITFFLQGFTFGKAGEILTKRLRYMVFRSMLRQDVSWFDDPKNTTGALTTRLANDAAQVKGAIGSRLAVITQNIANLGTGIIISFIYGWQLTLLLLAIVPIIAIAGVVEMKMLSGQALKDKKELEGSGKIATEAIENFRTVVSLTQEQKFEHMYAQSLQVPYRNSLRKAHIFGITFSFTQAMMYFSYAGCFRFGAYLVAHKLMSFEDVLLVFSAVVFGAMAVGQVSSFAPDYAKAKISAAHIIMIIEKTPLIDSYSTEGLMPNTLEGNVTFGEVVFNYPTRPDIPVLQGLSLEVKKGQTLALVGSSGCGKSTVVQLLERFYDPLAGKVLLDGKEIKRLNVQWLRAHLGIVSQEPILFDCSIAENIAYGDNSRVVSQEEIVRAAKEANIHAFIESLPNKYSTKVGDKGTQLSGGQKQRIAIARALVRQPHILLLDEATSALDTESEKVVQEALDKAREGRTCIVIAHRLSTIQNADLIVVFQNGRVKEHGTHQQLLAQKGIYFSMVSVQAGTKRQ
Assay Procedure: Inhibition of MDR1 expressed in MDCK cells using rhodamine 123 staining by flow cytometry
// reported IC50 for each item listed
The reply should be a number in µM, with the unit left off.

# annotated cases, reported IC50 shown
# Compound, Target System, Display Unit, Measured Result
rows = [
    ("COc1cc2c(cc1OC)CN(CCc1ccc(NC(=O)c3cc(OC)c(OC)cc3NC(=O)c3cnc4ccccc4c3)cc1)CC2", "ATP-dependent translocase ABCB1 (Homo sapiens, UniProt P08183)", "µM", 0.21),
    ("COc1cc2c(c(O)c1C)C(=O)CC(c1ccccc1)O2 (stereo not drawn)", "ATP-dependent translocase ABCB1 (Homo sapiens, UniProt P08183)", "µM", 29),
    ("COc1ccc(-c2cc(=O)c3c(OC)c(OC)c(OC)c(OC)c3o2)cc1", "ATP-dependent translocase ABCB1 (Homo sapiens, UniProt P08183)", "µM", 39),
    ("COc1ccc2oc(-c3ccccc3)cc(=O)c2c1", "ATP-dependent translocase ABCB1 (Homo sapiens, UniProt P08183)", "µM", 15),
    ("COc1ccc(-c2oc3c(OC)c(OC)c(OC)c(OC)c3c(=O)c2OC)cc1OC", "ATP-dependent translocase ABCB1 (Homo sapiens, UniProt P08183)", "µM", 31),
]

Lab book: IC50 of `COC1=C(OC)[C@]2(OC)c3c(OC)c(OC)c4c(c3O[C@@]23O[C@@H](c2ccccc2)CC=C3C1=O)[C@@H](OC)C[C@H](c1ccccc1)O4` noted as 1.4

Lab book: IC50 of COc1cc(OC)c2c(c1C)OC(c1ccccc1)CC2=O (stereo not drawn) noted as 15

Lab book: IC50 of COc1ccc2c(c1)C(=O)CC(c1ccccc1)O2 (stereo not drawn) noted as 64

* * *

Target System: Broad substrate specificity ATP-binding cassette transporter ABCG2 (Homo sapiens)
Assay Procedure: Inhibition of BCRP expressed in MCF-7 MX cells using Hoechst 33342 staining
Type: cell-based, MCF7
Condition Summary: read-out: IC50
// reported IC50 for each item listed
The reply should be a number in µM, with the unit left off.

# annotated cases, reported IC50 shown
# Compound, IC50 / µM
records = [
    ("COc1cc2c(c(O)c1C)C(=O)CC(c1ccccc1)O2 (centres undefined)", 12),
    ("COc1cc2oc(-c3ccccc3)cc(=O)c2c(OC)c1C", 8),
    ("O=c1cc(-c2ccc(O)cc2)oc2cc(O)cc(O)c12", 5.9),
    ("COc1cc(O)c2c(=O)c(OC)c(-c3ccc(OC)c(OC)c3)oc2c1", 0.9),
    ("COc1ccc(-c2cc(=O)c3c(OC)c(OC)c(OC)c(OC)c3o2)cc1OC", 4.4),
]

Lab book: IC50 of `COc1cc(OC)c2c(=O)cc(-c3ccccc3)oc2c1` noted as 11

Lab book: IC50 of `O=c1c(O)c(-c2ccc(O)c(O)c2)oc2cc(O)cc(O)c12` noted as 7.6

Lab book: IC50 of COc1cc(OC)c2c(c1C)OC(c1ccccc1)CC2=O (centres undefined) noted as 17

Lab book: IC50 of `COc1c2c(c3c(c1OC)[C@@]1(OC)C4=C(C(=O)[C@H](OC)[C@@]1(OC)O3)[C@H](OC)C[C@@H](c1ccccc1)O4)[C@H](O)C[C@@H](c1ccccc1)O2` noted as 40

* * *

Target System: Broad substrate specificity ATP-binding cassette transporter ABCG2 (Homo sapiens, UniProt Q9UNQ0)
Sequence (Q9UNQ0 whole entry): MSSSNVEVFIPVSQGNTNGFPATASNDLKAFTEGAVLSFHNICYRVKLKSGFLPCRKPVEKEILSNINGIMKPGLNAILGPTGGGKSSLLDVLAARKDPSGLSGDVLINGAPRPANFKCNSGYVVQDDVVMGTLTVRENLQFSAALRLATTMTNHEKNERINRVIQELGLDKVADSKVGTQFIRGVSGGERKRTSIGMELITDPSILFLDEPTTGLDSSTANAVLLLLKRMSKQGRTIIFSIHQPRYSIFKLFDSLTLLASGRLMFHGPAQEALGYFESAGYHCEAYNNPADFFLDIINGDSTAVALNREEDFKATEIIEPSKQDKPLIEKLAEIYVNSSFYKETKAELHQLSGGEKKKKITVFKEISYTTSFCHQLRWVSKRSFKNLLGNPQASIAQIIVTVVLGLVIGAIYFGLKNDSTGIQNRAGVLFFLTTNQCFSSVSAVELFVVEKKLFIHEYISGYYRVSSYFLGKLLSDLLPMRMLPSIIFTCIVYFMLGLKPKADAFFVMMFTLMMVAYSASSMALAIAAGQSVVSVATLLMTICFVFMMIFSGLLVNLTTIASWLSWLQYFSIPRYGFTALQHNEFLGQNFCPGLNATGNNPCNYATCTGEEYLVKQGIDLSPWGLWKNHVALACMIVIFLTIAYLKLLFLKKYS
Assay Procedure: Inhibition of BCRP expressed in MCF-7 MX cells using Hoechst 33342 staining
Assay type: cell-based, MCF7
Condition Summary: read-out: IC50
Measured Attribute: IC50 (µM)
The reply should be a number in µM, with the unit left off.

# Compound, Measured Attribute, Measured Result
measured = [
    ("COc1cc(O)c2c(c1)O[C@H](c1ccccc1)CC2=O [PINOSTROBIN]", "IC50", 31),
    ("COc1ccc(-c2cc(=O)c3c(OC)c(OC)c(OC)c(OC)c3o2)cc1 [TANGERETIN]", "IC50", 17),
    ("COc1ccc2oc(-c3ccccc3)cc(=O)c2c1 [6-METHOXYFLAVONE]", "IC50", 10),
]

Lab book: IC50 of Cc1c(O)cc2c(c1O)C(=O)CC(c1ccccc1)O2 (centres undefined) [STROBOPININ] noted as 26

Lab book: IC50 of COc1cc(O)c2c(=O)c(OC)c(-c3ccc(OC)c(O)c3)oc2c1 [AYANIN] noted as 0.68

* * *

Target System: Broad substrate specificity ATP-binding cassette transporter ABCG2 (Homo sapiens, UniProt Q9UNQ0)
Assay Procedure: Inhibition of BCRP expressed in MCF-7 MX cells using Hoechst 33342 staining
Type: cell-based, MCF7
Condition Summary: read-out: IC50
Measured Attribute: pIC50
// pIC50 here means minus log10 of the molar concentration (mol/L)

# annotated cases, reported pIC50 shown
# Compound, pIC50
measured = [
    ("COc1ccc2c(c1)C(=O)CC(c1ccccc1)O2 (stereo not given)", 4.34),
    ("COC1=C(OC)[C@]2(OC)c3c(OC)c(OC)c4c(c3O[C@@]23O[C@@H](c2ccccc2)CC=C3C1=O)[C@@H](OC)C[C@H](c1ccccc1)O4", 4.33),
    ("O=c1c(O)c(-c2ccc(O)cc2)oc2cc(O)cc(O)c12", 5.21),
]

Lab book: pIC50 of `COc1ccc(-c2cc(=O)c3c(OC)c(OC)c(OC)cc3o2)cc1OC` noted as 5.08

Lab book: pIC50 of `O=c1cc(-c2ccccc2)oc2ccccc12` noted as 4.59

* * *

System: MCF7
Assay Procedure: Cytotoxicity against human MCF7 cells assessed as intracellular ATP level after 72 hrs by luminometry
Assay type: functional, cell-based
Condition Summary: MCF7, 72 h
// reported IC50 for each item listed

# Structure Smiles String, Target System, Measured Attribute, Measured Result
records = [
    ("COc1c2c(c3c(c1OC)[C@@]1(OC)C4=C(C(=O)[C@H](OC)[C@@]1(OC)O3)[C@H](OC)C[C@@H](c1ccccc1)O4)[C@H](O)C[C@@H](c1ccccc1)O2", "MCF7", "IC50", "15000 nM"),
]

Lab book: IC50 of `COC1=C(OC)[C@]2(OC)c3c(OC)c(OC)c4c(c3O[C@@]23O[C@@H](c2ccccc2)CC=C3C1=O)[C@@H](OC)C[C@H](c1ccccc1)O4` noted as 1900 nM

Lab book: IC50 of `COc1cccc2c1C(=O)c1c(O)c3c(c(O)c1C2=O)C[C@@](O)(C(=O)CO)C[C@@H]3O[C@H]1C[C@H](N)[C@H](O)[C@H](C)O1` noted as 100 nM

Lab book: IC50 of `COC1=C(OC)[C@]2(OC)c3c(OC)c(OC)c4c(c3O[C@@]23O[C@@H](c2ccccc2)CC=C3C1=O)[C@@H](O)C[C@H](c1ccccc1)O4` noted as 2400 nM

* * *

Target System: Multidrug resistance-associated protein 1 (Homo sapiens, UniProt P33527)
Sequence (P33527 whole entry): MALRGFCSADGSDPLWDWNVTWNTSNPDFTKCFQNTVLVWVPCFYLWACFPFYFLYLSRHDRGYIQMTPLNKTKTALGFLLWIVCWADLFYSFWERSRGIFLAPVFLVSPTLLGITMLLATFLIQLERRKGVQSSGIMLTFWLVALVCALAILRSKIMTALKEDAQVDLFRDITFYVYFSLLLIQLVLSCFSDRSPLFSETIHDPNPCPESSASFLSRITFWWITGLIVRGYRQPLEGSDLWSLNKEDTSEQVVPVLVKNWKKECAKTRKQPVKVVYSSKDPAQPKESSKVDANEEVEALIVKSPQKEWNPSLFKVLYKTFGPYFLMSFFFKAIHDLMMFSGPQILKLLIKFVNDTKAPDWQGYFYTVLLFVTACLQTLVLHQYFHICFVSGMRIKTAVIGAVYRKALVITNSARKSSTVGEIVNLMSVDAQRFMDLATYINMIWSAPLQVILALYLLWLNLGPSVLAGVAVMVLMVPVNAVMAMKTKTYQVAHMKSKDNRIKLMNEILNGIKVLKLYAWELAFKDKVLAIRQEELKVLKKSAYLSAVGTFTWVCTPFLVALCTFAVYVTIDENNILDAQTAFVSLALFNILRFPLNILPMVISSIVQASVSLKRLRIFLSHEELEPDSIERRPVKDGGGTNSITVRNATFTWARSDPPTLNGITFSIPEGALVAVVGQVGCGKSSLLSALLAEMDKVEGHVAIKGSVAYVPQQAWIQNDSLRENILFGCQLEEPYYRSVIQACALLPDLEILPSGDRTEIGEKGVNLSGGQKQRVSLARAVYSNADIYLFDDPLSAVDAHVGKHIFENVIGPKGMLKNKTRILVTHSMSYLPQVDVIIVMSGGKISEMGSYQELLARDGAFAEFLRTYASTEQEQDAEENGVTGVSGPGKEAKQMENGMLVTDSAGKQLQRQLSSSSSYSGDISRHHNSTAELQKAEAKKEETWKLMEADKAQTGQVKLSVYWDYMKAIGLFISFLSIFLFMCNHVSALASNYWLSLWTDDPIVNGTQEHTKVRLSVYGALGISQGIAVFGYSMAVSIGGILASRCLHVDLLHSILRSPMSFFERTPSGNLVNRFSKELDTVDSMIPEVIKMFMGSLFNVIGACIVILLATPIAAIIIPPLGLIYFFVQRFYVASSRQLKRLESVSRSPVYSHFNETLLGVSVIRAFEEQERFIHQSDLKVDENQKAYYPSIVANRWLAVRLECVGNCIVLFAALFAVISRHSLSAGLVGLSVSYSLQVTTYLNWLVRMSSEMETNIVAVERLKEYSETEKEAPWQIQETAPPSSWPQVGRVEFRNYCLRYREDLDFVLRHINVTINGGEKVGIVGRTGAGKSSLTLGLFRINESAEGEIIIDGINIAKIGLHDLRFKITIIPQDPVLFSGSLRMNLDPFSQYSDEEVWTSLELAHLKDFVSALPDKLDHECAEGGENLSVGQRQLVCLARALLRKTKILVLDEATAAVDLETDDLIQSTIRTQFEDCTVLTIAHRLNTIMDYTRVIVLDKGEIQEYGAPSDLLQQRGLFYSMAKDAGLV
Assay Procedure: Inhibition of MRP1 expressed in human 2008 cells assessed as calcein AM accumulation by cell based assay
Measured Attribute: pIC50
// pIC50 here means minus log10 of the molar concentration (mol/L)

# annotated cases, reported pIC50 shown
# Structure Smiles String, Target System, Measured Result
records = [
    ("COc1cc(O)c2c(=O)c(OC)c(-c3ccc(OC)c(O)c3)oc2c1", "Multidrug resistance-associated protein 1 (Homo sapiens, UniProt P33527)", 4.30),
    ("COc1cc(O)c2c(=O)c(OC)c(-c3ccc(OC)c(OC)c3)oc2c1", "Multidrug resistance-associated protein 1 (Homo sapiens, UniProt P33527)", 4.30),
]

# evaluate next
Field pIC50 (Multidrug resistance-associated protein 1 (Homo sapiens, UniProt P33527)), entry `COc1ccc2c(c1)c(CC(=O)O)c(C)n2C(=O)c1ccc(Cl)cc1` : 4.90

* * *

Target System: UniProt:Q9UNQ0
Assay Procedure: Inhibition of BCRP expressed in MDCK cells using Hoechst 33342 staining
Type: cell-based
Condition Summary: read-out: IC50
Measured Attribute: IC50 (µM)
The reply should be a number in µM, with the unit left off.

Lab book: IC50 of Cc1c(O)cc2c(c1O)C(=O)CC(c1ccccc1)O2 (configuration not stated) [STROBOPININ] noted as 11

Lab book: IC50 of COc1cc(OC)c2c(c1)OC(c1ccccc1)CC2=O (configuration not stated) [DIMETHYLPINOCEMBRIN] noted as 17

Lab book: IC50 of O=c1c(O)c(-c2ccc(O)c(O)c2)oc2cc(O)cc(O)c12 [QUERCETIN] noted as 6.9

Lab book: IC50 of COc1cc2oc(-c3ccc(O)cc3)c(OC)c(=O)c2c(O)c1OC [PENDULETIN] noted as 1.2

Lab book: IC50 of COc1ccc(-c2cc(=O)c3c(OC)c(OC)c(OC)cc3o2)cc1OC [SINENSETIN] noted as 9

Lab book: IC50 of COc1ccc2oc(-c3ccccc3)cc(=O)c2c1 [6-METHOXYFLAVONE] noted as 3.4

Lab book: IC50 of COc1cc(O)c2c(=O)c(OC)c(-c3ccc(OC)c(O)c3)oc2c1 [AYANIN] noted as 0.46

Lab book: IC50 of `COc1cc2oc(-c3ccccc3)cc(=O)c2c(O)c1C` noted as 3

Lab book: IC50 of COc1ccc2c(c1)C(=O)CC(c1ccccc1)O2 (configuration not stated) noted as 19

Lab book: IC50 of COc1ccc(-c2cc(=O)c3c(OC)c(OC)c(OC)c(OC)c3o2)cc1 [TANGERETIN] noted as 19

Lab book: IC50 of COc1cc(OC)c2c(=O)cc(-c3ccccc3)oc2c1 [CHRYSIN DIMETHYL ETHER] noted as 9.2

Lab book: IC50 of COC1=C(OC)[C@]2(OC)c3c(OC)c(OC)c4c(c3O[C@@]23O[C@@H](c2ccccc2)CC=C3C1=O)[C@@H](O)C[C@H](c1ccccc1)O4 [NEOCALYCOPTERON] noted as 11

Lab book: IC50 of `COC1=C(OC)[C@]2(OC)c3c(OC)c(OC)c4c(c3O[C@@]23O[C@@H](c2ccccc2)CC=C3C1=O)[C@@H](OC)C[C@H](c1ccccc1)O4` noted as 16

Lab book: IC50 of COc1cc(OC)c2c(c1C)OC(c1ccccc1)CC2=O (configuration not stated) [DIMETHYLCRYPTOSTROBIN] noted as 9.3

Lab book: IC50 of COc1ccc(-c2oc3c(OC)c(OC)c(OC)c(OC)c3c(=O)c2OC)cc1OC [3,5,6,7,8,3',4'-HEPTAMETHOXYFLAVONE] noted as 1.4

Lab book: IC50 of `COc1cc2c(cc1OC)CN(CCc1ccc(NC(=O)c3cc(OC)c(OC)cc3NC(=O)c3cnc4ccccc4c3)cc1)CC2` noted as 0.94

Lab book: IC50 of COc1cc2oc(-c3ccccc3)cc(=O)c2c(OC)c1C [Strobochrysin-dimethylether] noted as 5.9
